Molecular target: human MER (528-end) (Homo sapiens, UniProt Q12866)
Construct: human MER (528-end); purchased Camnabio, Japan
Sequence (Q12866 528-999 limits assumed): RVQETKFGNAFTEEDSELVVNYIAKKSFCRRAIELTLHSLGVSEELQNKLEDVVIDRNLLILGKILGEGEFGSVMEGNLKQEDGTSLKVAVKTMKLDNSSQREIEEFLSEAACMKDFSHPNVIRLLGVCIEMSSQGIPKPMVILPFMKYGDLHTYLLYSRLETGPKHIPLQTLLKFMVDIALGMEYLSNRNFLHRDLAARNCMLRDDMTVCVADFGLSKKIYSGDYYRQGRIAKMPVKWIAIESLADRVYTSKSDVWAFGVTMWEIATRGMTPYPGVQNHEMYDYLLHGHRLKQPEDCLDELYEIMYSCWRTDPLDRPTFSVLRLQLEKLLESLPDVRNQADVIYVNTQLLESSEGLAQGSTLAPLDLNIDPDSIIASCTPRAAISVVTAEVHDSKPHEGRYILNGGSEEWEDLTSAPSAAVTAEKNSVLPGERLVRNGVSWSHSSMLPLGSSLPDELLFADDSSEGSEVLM
Assay: HTRF kinase activity biochemical assay, MER
Conditions: 10 μM ATP, 30 minutes pre-incubation; read-out: HTRF MERTK IC50
Catalogue of IC50 values

# example entries with known answers
>  <COMPOUND>
CN(C)CC(=O)NC1Cc2ccc(-c3ccc(CO[C@H]4CCC[C@@H]4NC(=O)c4cc(-c5cnn(C)c5)cnc4N)cc3)cc2C1 (stereo partly drawn) [Example 9]

>  <IC50>
< 10 nM

$$$$
>  <COMPOUND>
Cn1ccc(-c2cnc(N)c(C(=O)N[C@H]3CCC[C@@H]3OCc3ccc(-c4ccc5c(c4)CC(F)(F)C5N4CCN(CC(O)CO)CC4)cc3)c2)cc1=O (stereo partly drawn) [Example 63]

>  <IC50>
< 10 nM

$$$$
>  <COMPOUND>
CC1(C)C(=O)N(C2CCN(CCO)CC2)c2ccc(-c3ccc(CO[C@H]4CCC[C@@H]4NC(=O)c4cc(-c5ccc(F)nc5)cnc4N)cc3)nc21 [Example 74]

>  <IC50>
100 to 1000 nM

$$$$
>  <COMPOUND>
Cn1cc(-c2cnc(N)c(C(=O)N[C@H]3CCC[C@@H]3OCc3ccc(-c4ccc5c(cnn5C5CCN(CCO)CC5)c4)cc3)c2)cn1 [Example 111]

>  <IC50>
10 to 100 nM

$$$$
>  <COMPOUND>
Cn1cc(-c2cnc(N)c(C(=O)N[C@H]3CCC[C@@H]3OCc3ccc(-c4ccc5c(c4)CC[C@@H]5N4CCN(C(CO)CO)CC4)cc3)c2)cn1 [Example 128]

>  <IC50>
< 10 nM

$$$$

Turning to the following compound.
Entry COc1c(-c2cnn(C)c2)cnc(N)c1C(=O)N[C@H]1CCC[C@@H]1OCc1ccc(-c2ccc3c(c2)CC[C@@H]3N2CCN(C)CC2)cc1 [Example 157] : reported IC50 = ?
< 10 nM

* * *

Molecular target: human MER (528-end) (Homo sapiens, UniProt Q12866)
Construct: human MER (528-end); purchased Camnabio, Japan
Experiment: HTRF kinase activity biochemical assay, MER
Conditions: 10 μM ATP, 30 minutes pre-incubation; read-out: HTRF MERTK IC50
pIC50: −log10 of the molar value.
READOUT NAME: pIC50

Reported pIC50, compound Nc1ncc(-c2ccc(F)nc2)cc1C(=O)N[C@H]1CCC[C@@H]1OCc1ccc(-c2ccc3c(c2)CC(F)(F)C3N2CCN(CC(O)CO)CC2)cc1 (stereo partly drawn) : ____
> 8.00

Now consider "CN1CCN([C@H]2CCCc3cc(-c4ccc(CO[C@H]5CCC[C@@H]5NC(=O)c5cc(-c6cccnc6F)cnc5N)cc4)ccc32)CC1" and answer again.
> 8.00

* * *

Target: human TYRO3 (455-end) (Homo sapiens, UniProt Q06418)
Construct: TYRO3 (455-end); purchased SignalChem, Canada
Experiment: HTRF kinase activity biochemical assay, TYRO3
Details: 10 μM ATP, 30 minutes pre-incubation; read-out: HTRF TYRO IC50
Entries annotated with measured IC50

Example cases with answers are listed next.
>  <COMPOUND>
Cn1cc(-c2cnc(N)c(C(=O)N[C@H]3CCC[C@@H]3OCc3ccc(-c4ccc5c(c4)CC(F)(F)C5N4CCN(CCO)CC4)cc3)c2)cn1 (some centres unmarked) [Example 50]

>  <IC50>
100 to 1000 nM

$$$$
>  <COMPOUND>
Cn1cc(-c2cnc(N)c(C(=O)N[C@H]3CCC[C@@H]3OCc3ccc(-c4ccc5c(c4)C(C)(C)C[C@@H]5N4CCN(CCO)CC4)cc3)c2)cn1 [Example 103]

>  <IC50>
< 10 nM

$$$$
>  <COMPOUND>
Cn1cc(-c2cnc(N)c(C(=O)N[C@H]3CCC[C@@H]3OCc3ccc(-c4ccc5c(c4)C[C@H](F)[C@@H]5N4CCN(CCO)CC4)cc3)c2)ccc1=O (relative stereo) [Example 90]

>  <IC50>
> 1000 nM

$$$$
>  <COMPOUND>
Cn1cc(-c2cnc(N)c(C(=O)N[C@H]3CCC[C@@H]3OCc3ccc(-c4ccc5c(c4)C[C@H](F)[C@@H]5N4CCN(CCO)CC4)cc3)c2)cn1 (relative stereo) [Example 85]

>  <IC50>
100 to 1000 nM

$$$$

Now for a further compound.
IC50 for Nc1ncc(-c2cccnc2F)cc1C(=O)N[C@H]1CCC[C@@H]1OCc1ccc(-c2ccc3c(c2)CC[C@@H]3N2CCN(C[C@H](O)CO)CC2)cc1 [Example 166] ?
100 to 1000 nM

* * *

Molecular target: human TYRO3 (455-end) (Homo sapiens)
Construct: TYRO3 (455-end); purchased SignalChem, Canada
Sequence (Q06418 455-890 limits assumed): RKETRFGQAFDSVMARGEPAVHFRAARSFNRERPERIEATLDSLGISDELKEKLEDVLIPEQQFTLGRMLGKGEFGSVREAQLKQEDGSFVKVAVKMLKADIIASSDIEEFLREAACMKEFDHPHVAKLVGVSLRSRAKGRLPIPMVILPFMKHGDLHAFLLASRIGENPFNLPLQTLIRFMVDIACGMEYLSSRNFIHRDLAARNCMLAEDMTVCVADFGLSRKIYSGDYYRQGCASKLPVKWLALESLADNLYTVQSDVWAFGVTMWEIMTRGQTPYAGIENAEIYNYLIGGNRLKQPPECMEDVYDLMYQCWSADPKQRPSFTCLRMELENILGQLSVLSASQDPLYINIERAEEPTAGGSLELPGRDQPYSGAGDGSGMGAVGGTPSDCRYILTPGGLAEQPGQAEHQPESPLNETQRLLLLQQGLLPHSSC
Assay: HTRF kinase activity biochemical assay, TYRO3
Details: 10 μM ATP, 30 minutes pre-incubation; read-out: HTRF TYRO IC50
pIC50: −log10 of the molar value.
The molecules listed here are annotated with their pIC50.

Short answer please: pIC50, human TYRO3 (455-end) (Homo sapiens), entry Cn1cc(-c2cnc(N)c(C(=O)N[C@H]3CCC[C@@H]3OCc3ccc(-c4ccc5c(c4)CC[C@H]5N4CCN(CC(O)CO)CC4)cc3)c2)cn1 (stereo partly drawn)
< 6.00

Now consider "CN1CCN([C@H]2CCCc3cc(-c4ccc(CO[C@H]5CCC[C@@H]5NC(=O)c5cc(-c6cnn(C)c6)cnc5N)cc4)ccc32)CC1" .
> 8.00

What about Nc1ncc(-c2ccc(F)nc2)cc1C(=O)N[C@H]1CCC[C@@H]1OCc1ccc(-c2ccc3c(c2)CCCC3N2CCN(CCO)CC2)cc1 (stereo partly drawn) ?
7.00 to 8.00

Try this molecule next: "Cn1cc(-c2cnc(N)c(C(=O)N[C@H]3CCC[C@@H]3OCc3ccc(-c4ccc5c(c4)CCC[C@H]5N4CCN(C[C@H](O)CO)CC4)cc3)c2)cn1"
< 6.00

Can you check "Cn1cc(-c2cnc(N)c(C(=O)N[C@H]3CCC[C@@H]3OCc3ccc(-c4ccc5c(c4)CC[C@@H]5N4CCN5C[C@H](O)C[C@H]5C4)cc3)c2)cn1" next?
7.00 to 8.00

Again, but for "Cn1cc(-c2cnc(N)c(C(=O)N[C@H]3CCC[C@@H]3OCc3ccc(-c4ccc5c(c4)CC[C@@H]5N4CCN(C(CO)CO)CC4)cc3)c2)cn1"
6.00 to 7.00

Check "Nc1ncc(-c2ccns2)cc1C(=O)N[C@H]1CCC[C@@H]1OCc1ccc(-c2ccc3c(c2)CC[C@@H]3N2CCN(CCO)CC2)cc1" too.
7.00 to 8.00

Next molecule: "Cn1cc(-c2cnc(N)c(C(=O)N[C@H]3COC[C@@H]3OCc3ccc(-c4ccc5c(c4)CC[C@@H]5N4CCN(CCO)CC4)cc3)c2)cn1"
6.00 to 7.00

Another molecule to look at: "Nc1ncc(-c2cccnc2F)cc1C(=O)N[C@H]1CCC[C@@H]1OCc1ccc(-c2ccc3c(c2)CCC[C@@H]3N2CCN(CCO)CC2)cc1"
> 8.00

Field entry: "Cc1cn(C)c2ccc(-c3ccc(CO[C@H]4CCC[C@@H]4NC(=O)c4cc(-c5cnn(C)c5)cnc4N)cc3)cc12"
< 6.00

Same read-out for "Nc1ncc(-c2ccc(F)nc2)cc1C(=O)N[C@H]1CCC[C@@H]1OCc1ccc(-c2ccc3c(c2)CC[C@H]3N2CCN3C[C@H](O)C[C@H]3C2)cc1" ?
< 6.00

Another: "Nc1ncc(-c2ccc(F)nc2)cc1C(=O)N[C@H]1CCC[C@@H]1OCc1ccc(-c2ccc3c(ccn3C3CCN(CCO)CC3)c2)cc1"
6.00 to 7.00

FYI, the data here is from patent US20260146035A1.
